assay notes: MRT(0 to t) in ICR mouse at 10 mg/kg, po
Format: ADME, organism-based
experimental conditions: in vivo
recorded metric: MRT last (h)
Answers are plain numbers, in h.

MRT last reported for this molecule CCN(c1cc(-c2ccc(CN3CCN(C(=O)CC4CCC(CNc5cccc6c5C(=O)N(C5CCC(=O)NC5=O)C6=O)CC4)CC3)cc2)cc(C(=O)NCc2c(C)cc(C)[nH]c2=O)c1C)C1CCOCC1 (stereo unspecified) : 8.87

###

assay notes: Initial plasma concentration in ICR mouse at 2 mg/kg, iv
Format: ADME, organism-based
recorded metric: C0 (ng/mL)
Answers are plain numbers, in ng/mL.

C0 reported for this molecule CCN(c1cc(-c2ccc(CN3CCN(C(=O)CC4CCC(CNc5cccc6c5C(=O)N(C5CCC(=O)NC5=O)C6=O)CC4)CC3)cc2)cc(C(=O)NCc2c(C)cc(C)[nH]c2=O)c1C)C1CCOCC1 (stereo unspecified) : 6500
